System: stimulated PBMC (actively dividing cells)
Experiment: IC50 on stimulated PBMC (intrinsic toxicity)
Format: cell-based
Conditions: Homo sapiens, PBMC STIMULATED, Table IV, read-out: In vitro proliferation IC50 (micro Molar)
MEASURE: IC50 (µM)
Use µM as the unit, but write only the number.

CCC(=O)O[C@]1(C(=O)CO)CC[C@H]2[C@@H]3CCC4=CC(=O)CC[C@]4(C)[C@H]3CC[C@@]21C [CB-03-01]	0.1

Record CCCC(=O)OC1(C(=O)CO)CCC2C3CCC4=CC(=O)CC[C@]4(C)C3=CC[C@@]21C (single isomer, unassigned) [CB-03-04] , field IC50: 360

Record summary for CC(=O)O[C@]1(C(C)=O)CC[C@H]2[C@@H]3C=C(Cl)C4=CC(=O)[C@@H]5C[C@@H]5[C@]4(C)[C@H]3CC[C@@]21C [Cyproterone Acetate, Cyproterone acetate, reference compound] : reported IC50 = 62

So, CCCCC(=O)O[C@]1(C(=O)CO)CC[C@H]2[C@@H]3CCC4=CC(=O)CC[C@]4(C)[C@H]3CC[C@@]21C [CB-03-05, cortexolone 17α-valerate] ? Its IC50 was 130
